Target: biotinylated HCV core peptide 151-171 (Peptide 3) (HCV-1)
Assay: EIA, captured mAb
For each entry below, report its Reactivity (OD492) value.
Numbers only, in OD.

Reference set (3 entries):
{"columns": ["binder", "experimental_result"],
 "data": [
  ["HCV 208B-793 (antibody, V domains shown) VH: EVKLVESGGGLVQPGGSLKLSCAASGFTFSSYAMSWVRQTPERRLEWVTYISNGGGSTYYSDTVKGRFTFSRDNAKNTLYLQMSSLKSEDTAMYYCARHGLGRTGFASWGQGTLVTVSA VL: DIVMTQSHKFMSTSVGDRVSITCKASQDVGTAVAWYQQKPGQSPKLLIYWASTRHTGVPDRFTGSGSGTDFTLTISNVQSEDLADYFCQQYSNYLTFGAGTKLEVKR", 0.09],
  ["HCV 208B-408 (antibody, V domains shown) VH: EVKLVESGGGLVQPGGSLRLSCASSGFTFTDYYMSWVRQPPGKALEWLGFIRNKAYGYTTEFSASVNGRFTISRDDSQSVPYLQMNTLRAEDSATYYCARVLYYDYGGFAYWGQGTLVTVST VL: DIQMTQSPASLSASVGETVTITCRASGNIHTYLAWYQQKQGKSPQLLVYNANTLADGVPSRFSGSGSGTQFSLKINSLQPDDFGSYYCQHFWSAPWTFGGGTQLEIKR", 0.16],
  ["HCV 208B-822 (antibody, V domains shown) VH: QVQLKQSGPGLVQPSQSLSITCTVSGFSLITYGVHWVRQSPGKGLEWLGVIWGGGSTGYNAAFVSRLNITKDNSKSQVFFKMNSLQPDDTAIYYCARNGGATVFDYWGQGTTLTVSS VL: DIVMTQSPATLSVTPGDRVSLSCRASQTISDYLHWYQQKSHESPRLLIKYASQSISGIPSRFSGSGSGSHFTLSINSVEPEDVGVYYCQNGHSFPWTFGGGTKLEIKR", 0.07]
]}

Items follow; give Reactivity (OD492) for each.
1. HCV 208A-207 (antibody, V domains shown) VH: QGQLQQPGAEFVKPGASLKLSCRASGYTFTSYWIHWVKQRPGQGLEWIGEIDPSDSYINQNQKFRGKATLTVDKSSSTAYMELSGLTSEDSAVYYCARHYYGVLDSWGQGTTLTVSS VL: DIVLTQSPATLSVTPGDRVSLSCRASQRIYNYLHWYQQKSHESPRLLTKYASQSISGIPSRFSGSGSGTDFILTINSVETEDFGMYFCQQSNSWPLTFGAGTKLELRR
2. HCV 208A-557 (antibody, V domains shown) VH: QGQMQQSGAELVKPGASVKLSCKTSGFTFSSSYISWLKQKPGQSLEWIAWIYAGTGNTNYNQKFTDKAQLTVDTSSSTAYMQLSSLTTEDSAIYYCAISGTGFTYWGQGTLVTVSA VL: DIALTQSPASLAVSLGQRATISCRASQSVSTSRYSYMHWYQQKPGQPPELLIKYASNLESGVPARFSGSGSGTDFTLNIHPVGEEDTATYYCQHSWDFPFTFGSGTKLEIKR

OUTPUT:
1: 0.08; 2: 0.06

Items follow; give Reactivity (OD492) for each.
1. HCV 208A-134 (antibody, V domains shown) VH: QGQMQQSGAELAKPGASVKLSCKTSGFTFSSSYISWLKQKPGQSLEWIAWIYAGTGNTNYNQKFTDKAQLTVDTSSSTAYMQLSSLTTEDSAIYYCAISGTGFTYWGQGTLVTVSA VL: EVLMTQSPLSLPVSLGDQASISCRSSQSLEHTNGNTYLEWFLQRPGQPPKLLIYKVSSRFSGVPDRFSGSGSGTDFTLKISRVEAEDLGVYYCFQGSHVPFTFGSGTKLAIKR
2. HCV 208B-1024 (antibody, V domains shown) VH: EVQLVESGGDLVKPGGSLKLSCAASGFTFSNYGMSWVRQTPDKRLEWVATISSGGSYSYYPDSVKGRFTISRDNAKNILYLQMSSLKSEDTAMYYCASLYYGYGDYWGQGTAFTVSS VL: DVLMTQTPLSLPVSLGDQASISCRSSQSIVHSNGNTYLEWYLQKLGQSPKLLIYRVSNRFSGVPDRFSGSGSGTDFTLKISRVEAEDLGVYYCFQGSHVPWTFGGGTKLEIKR
3. HCV 208B-560 (antibody, V domains shown) VH: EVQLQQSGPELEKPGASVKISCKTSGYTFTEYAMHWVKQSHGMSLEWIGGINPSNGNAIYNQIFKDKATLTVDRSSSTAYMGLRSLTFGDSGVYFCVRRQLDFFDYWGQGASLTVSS VL: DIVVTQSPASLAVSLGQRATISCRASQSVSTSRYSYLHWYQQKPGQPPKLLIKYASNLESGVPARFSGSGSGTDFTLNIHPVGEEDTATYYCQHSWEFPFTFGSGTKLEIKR
4. HCV 208A-210 (antibody, V domains shown) VH: QVQLQQSGPELVKPGASMRISCKASGYTFTSYYVHWIKQRPGQGLEWIGCIYPGDVNTDYNEKFKGKATLTADKSSSTAYMQVSTLTSEDSAIYFCVLYYYGSFAYWGQGTLVTVSA VL: EIVLTQSPAITAASLGQNVTITCRASSSVSYMHWYRQKSGTSPQLWIYEISRRASGVPARFRASGSGTSYSLTISSMEAEDAAIYYCQQWNYPLTFGAGTKLEVKR
5. HCV 208A-830 (antibody, V domains shown) VH: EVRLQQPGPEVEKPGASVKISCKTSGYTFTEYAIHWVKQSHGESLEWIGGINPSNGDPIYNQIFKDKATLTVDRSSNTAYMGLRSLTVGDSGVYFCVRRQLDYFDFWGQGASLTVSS VL: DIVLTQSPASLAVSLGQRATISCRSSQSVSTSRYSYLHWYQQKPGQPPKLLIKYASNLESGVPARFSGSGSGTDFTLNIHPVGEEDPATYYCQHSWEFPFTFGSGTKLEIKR

OUTPUT:
0.06
0.15
0.14
0.05
0.08
